target.or.system: T1, soluble recombinant human DEC-205 fusion protein (DEC-205 extracellular domain comprising all ten … (human))
T1 chain: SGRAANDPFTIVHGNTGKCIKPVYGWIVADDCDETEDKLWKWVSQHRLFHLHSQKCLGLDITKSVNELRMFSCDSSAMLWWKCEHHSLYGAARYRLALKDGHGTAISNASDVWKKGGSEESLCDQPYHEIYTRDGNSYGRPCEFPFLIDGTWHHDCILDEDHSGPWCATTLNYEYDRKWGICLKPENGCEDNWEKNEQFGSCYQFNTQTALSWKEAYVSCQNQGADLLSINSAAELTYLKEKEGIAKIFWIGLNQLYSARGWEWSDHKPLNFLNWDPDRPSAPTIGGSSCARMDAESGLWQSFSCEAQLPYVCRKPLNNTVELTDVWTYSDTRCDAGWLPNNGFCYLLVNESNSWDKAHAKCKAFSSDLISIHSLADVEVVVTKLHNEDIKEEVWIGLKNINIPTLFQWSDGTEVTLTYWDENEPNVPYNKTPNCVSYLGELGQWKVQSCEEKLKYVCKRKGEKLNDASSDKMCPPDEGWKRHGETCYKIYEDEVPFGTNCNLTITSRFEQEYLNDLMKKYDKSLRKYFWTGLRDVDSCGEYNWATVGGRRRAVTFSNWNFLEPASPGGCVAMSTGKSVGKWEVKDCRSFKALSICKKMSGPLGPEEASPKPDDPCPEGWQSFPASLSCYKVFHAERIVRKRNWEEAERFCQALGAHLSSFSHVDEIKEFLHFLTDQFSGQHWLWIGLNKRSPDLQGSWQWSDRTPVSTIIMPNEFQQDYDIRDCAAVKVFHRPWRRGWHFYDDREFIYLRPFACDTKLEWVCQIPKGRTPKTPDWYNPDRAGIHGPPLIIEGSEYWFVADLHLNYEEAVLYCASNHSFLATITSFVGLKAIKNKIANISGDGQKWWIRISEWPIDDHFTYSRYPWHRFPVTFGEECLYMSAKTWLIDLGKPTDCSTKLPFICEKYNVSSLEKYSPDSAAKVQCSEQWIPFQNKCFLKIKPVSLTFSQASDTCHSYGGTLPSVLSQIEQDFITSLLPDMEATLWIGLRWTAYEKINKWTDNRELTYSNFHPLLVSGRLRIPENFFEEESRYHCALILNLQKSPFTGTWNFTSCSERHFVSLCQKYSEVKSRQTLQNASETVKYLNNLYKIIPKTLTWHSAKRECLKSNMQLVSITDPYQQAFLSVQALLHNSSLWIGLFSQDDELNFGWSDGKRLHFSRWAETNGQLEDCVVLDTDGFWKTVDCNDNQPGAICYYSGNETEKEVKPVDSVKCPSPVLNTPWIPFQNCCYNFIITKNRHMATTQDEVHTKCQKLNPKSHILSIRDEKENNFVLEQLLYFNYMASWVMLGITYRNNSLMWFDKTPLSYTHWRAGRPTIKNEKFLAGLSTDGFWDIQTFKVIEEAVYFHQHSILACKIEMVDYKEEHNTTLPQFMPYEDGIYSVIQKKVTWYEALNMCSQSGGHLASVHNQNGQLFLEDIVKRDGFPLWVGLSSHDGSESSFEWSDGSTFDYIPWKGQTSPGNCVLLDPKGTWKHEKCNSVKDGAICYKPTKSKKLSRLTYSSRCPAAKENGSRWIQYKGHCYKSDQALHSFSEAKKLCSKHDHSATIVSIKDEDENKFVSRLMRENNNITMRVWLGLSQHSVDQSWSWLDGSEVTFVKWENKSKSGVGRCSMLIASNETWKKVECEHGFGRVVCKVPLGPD
protocol.notes: SPR (Biacore 2000), DEC-205 fusion protein amine-coupled to CM5 chip, antibody flowed, 1:1 Langmuir fit, mean of two series
measure: Kd (nM)
One number for each entry, in nM.

{"columns": ["binder", "measure.unit", "Kd"],
 "data": [
  ["human anti-DEC-205 monoclonal antibody 3G9-2D2 (antibody, V domains shown) VH: QVQLVESGGGVVQPGRSLRLSCAASGFTFSNYGMYWVRQAPGKGLEWVAVIWYDGSNKYYADSVKGRFTISRDNSKNTLYLQMNSLRAEDTAVYYCARDLWGWYFDYWGQGTLVTVSS VL: EIVLTQSPATLSLSPGERATLSCRASQSVSSYLAWYQQKPGQAPRLLIYDASNRATGIPARFSGSGSGTDFTLTISSLEPEDFAVYYCQQRRNWPLTFGGGTKVEIK", "nM", 0.24],
  ["human anti-DEC-205 monoclonal antibody 5A8-1F1 (antibody, V domains shown) VH: QVQLVESGGGVVQPGRSLRLSCAASGFTFSTYGMHWVRQAPGKGLEWVAIIWYDGGNKYYADSVKGRFTISRDNSKNTLYLQMNSLRAEDTAVYYCARDFYWYFDLWGRGTLVTVSS VL: EIVLTQSPATLSLSPGERATLSCRASQSVSSYLAWYQQKPGQAPRLLIYDASNRATGIPARFSGSGSGTDFTLTISSLEPEDFAVYYCQQRRTFGQGTKVEIK", "nM", 1.5]
]}

Now consider a different binder.
Tell me measured Kd for human anti-DEC-205 monoclonal antibody 3C7-3A3 (antibody, V domains shown) VH: QVQLVESGGGVVQPGRSLRLSCAASGFTFSSYNMHWVRQAPGKGLEWVAFIWYDGSNKYYGDSVKGRFTISRDNSKNTLYLQMNSLRAEDTAVYYCAREELGIGWYFDLWGRGTLVTVSS VL: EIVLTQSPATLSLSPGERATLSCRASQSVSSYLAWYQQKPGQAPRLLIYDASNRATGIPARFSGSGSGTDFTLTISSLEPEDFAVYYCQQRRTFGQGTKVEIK please.
5.6

This collection of values is drawn from patent US20100098704A1.
